// values below are reported EC50 group, cGMP in GTM-3 cells
study_target: T1, natriuretic peptide receptor-B (human)
T1 chain: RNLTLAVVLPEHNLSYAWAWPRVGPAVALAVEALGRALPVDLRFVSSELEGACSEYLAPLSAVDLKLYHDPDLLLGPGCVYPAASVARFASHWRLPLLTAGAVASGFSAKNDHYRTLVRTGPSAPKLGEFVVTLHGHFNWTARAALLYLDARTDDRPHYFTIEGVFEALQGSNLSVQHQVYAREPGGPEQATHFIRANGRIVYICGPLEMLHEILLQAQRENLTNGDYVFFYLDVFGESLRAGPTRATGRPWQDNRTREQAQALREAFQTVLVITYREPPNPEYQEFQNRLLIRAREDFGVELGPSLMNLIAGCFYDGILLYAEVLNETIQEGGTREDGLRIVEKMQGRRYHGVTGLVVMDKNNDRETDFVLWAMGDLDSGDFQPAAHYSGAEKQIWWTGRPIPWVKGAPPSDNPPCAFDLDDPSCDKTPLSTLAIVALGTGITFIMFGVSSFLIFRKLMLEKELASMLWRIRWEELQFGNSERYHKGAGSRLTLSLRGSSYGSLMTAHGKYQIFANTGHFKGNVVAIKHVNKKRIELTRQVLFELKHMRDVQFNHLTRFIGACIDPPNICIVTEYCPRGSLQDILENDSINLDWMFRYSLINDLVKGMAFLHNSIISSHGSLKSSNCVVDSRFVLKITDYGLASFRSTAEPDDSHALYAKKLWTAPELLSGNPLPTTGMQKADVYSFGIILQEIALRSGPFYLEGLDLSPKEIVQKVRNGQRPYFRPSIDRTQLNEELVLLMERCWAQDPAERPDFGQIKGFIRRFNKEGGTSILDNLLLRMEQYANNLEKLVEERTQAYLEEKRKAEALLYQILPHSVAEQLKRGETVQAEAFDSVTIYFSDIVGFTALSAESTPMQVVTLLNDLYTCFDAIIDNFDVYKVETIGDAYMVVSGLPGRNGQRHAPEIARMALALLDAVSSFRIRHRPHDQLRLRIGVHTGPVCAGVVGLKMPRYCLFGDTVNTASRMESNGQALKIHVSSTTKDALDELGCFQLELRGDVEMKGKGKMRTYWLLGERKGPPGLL
experimental_details: cell-based or functional assay
Numbered stars: 1 amine (or outer) side, 2 acyl side, 3 side chain; on linkers, the order of the positions; unused ones are H or OH. Square brackets hold non-standard residues; d marks the D form. Ends that are not written are not given here. * marks the point of attachment. Pro(trans-4-NH2) = O=C([C@@H]1C[C@@H](N[*:3])CN1[*:1])[*:2]; Sni = (S)-nipecotic acid, O=C([C@H]1CCCN([*:1])C1)[*:2]; Fhy = Amino-piperidin-3-yl-acetic acid; Hyp = O=C(O)[C@@H]1C[C@@H](O)CN1; NMeF = CN[C@@H](Cc1ccccc1)C(=O)O; Cha = N[C@@H](CC1CCCCC1)C(=O)O; NMeL = CN[C@@H](CC(C)C)C(=O)O; orn(Me2) = not defined here; Octanoyl = CCCCCCCC(=O)*; Che = not defined here; Occ = octanoic acid
endpoint: EC50 group, cGMP in GTM-3 cells

[Occ][dA]F[Fhy]L[Hyp][NMeL]DRI-NH2 [JAL-1336]
≤ 1000 nM
Octanoyl-[dA]FXL[Pro(trans-4-NH2)][NMeL]DRI-NH2 (not fully specified (some residues); printed as Occ-ala-Phe-dap(3846)2-Leu-Tap-Nml-Asp-Arg-Ile-NH2) [JAL-1462]
≤ 5000 nM
[Occ][Sni][NMeF][dL]L[Hyp][NMeL]DRI-NH2 [JAL-1573]
≤ 1000 nM
Octanoyl-[Sni]F[orn(Me2)]L[Hyp][NMeL]DR[Che] (reading uncertain; also: printed as Occ-Sni-Phe-orn(Me2)-Leu-Hyp-Nml-Asp-Arg-Che) [JAL-1776]
≤ 1000 nM
[Occ]AFG[Cha]PLDRI-NH2 (not fully specified (residue 2); printed as Occ-ala-Phe-Gly-Cha-Pro-Leu-Asp-Arg-Ile-NH2) [JAL-0940]
≤ 15000 nM
